Source listed as patent US20060287533A1.

Catalogue of Amount of solvent required for completely dissolving the compound (Comp. Ex. 2) values
Procedure Summary: Dissolving capability: amount of solvent needed to completely dissolve 20 mg of compound
Format: physicochemical
Settings: 20 mg compound, solvent diethylether, room temperature
Experimental: The dissolving capability of 1,2,5-thiadiazole of the present invention was studied. A 20 mg of each of compounds 1 to 20 was transferred into a sample vial, to which 1,2,5-thiadiazole was added at room temperature with stirring. The addition was continued until the compound was completely dissolved, and the addition amount of the solvent was determined. The same procedure as in Example 3 was repeated except that 1,2,5-thiadiazole was replaced with chloroform. […]
State the answer as a number, implicitly in µL.

Check out these entries, answers already filled in.
Molecule: CC(=O)OCC1OCCC(OC(C)=O)[C@@H]1OC(C)=O (some centres unmarked) [Compound 18]
Result Number: 200

Molecule: CC1(C)OCc2cc(OCCO)ccc2O1 [Compound 15]
Result Number: 2400

Recorded result, CC/C=C(\C)CN1C(=O)OC[C@H]1C(C)C [Compound 12] , Amount of solvent required for completely dissolving the compound (Comp. Ex. 2): 200

###

Recorded Amount of solvent required for completely dissolving the compound (Comp. Ex. 2) for the following compounds
Procedure Summary: Dissolving capability: amount of solvent needed to completely dissolve 20 mg of compound
Assay type: physicochemical
Settings: 20 mg compound, solvent diethylether, room temperature
Only the number, expressed in µL, is required.

Compound: CCCCCC(=O)CC(=O)NC1CCOC1=O (stereo not drawn)
Measurement Units: µL
Result Number: 4800

Okay, now this compound:
Looking up CO[C@H]1OC(COCc2ccccc2)[C@H](N=[N+]=[N-])CC1NS(=O)(=O)c1ccc(C)cc1 (stereo partly drawn) , I found its Amount of solvent required for completely dissolving the compound (Comp. Ex. 2) recorded as 1600

###

Procedure Summary: Dissolving capability: amount of solvent needed to completely dissolve 20 mg of compound
Assay type: physicochemical
Settings: 20 mg compound, solvent 1,2,5-thiadiazole, room temperature, stirring
Recorded Addition amount of solvent until compound completely dissolved (Example 3), one value per entry.
Please state the figure in µL; there is no need to write the unit.

Compound: Cc1ccc(S(=O)(=O)O[C@@H]2C(C)O[C@@H](OCc3ccccc3)C3OC(=O)OC32)cc1 (stereo partly drawn) [Compound 9]
Measurement Units: µL
Result Number: 20

Compound: CC(C)(C)[Si](C)(C)OCC1=CC2(OCCO2)C(O)C(O)C1=O (stereo not drawn) [Compound 11]
Measurement Units: µL
Result Number: 200

Compound: CC(=O)OCC1OCCC(OC(C)=O)[C@@H]1OC(C)=O (stereo partly drawn) [Compound 18]
Measurement Units: µL
Result Number: 200

Compound: CCCCCC(=O)CC(=O)NC1CCOC1=O (stereo not drawn) [Compound 19]
Measurement Units: µL
Result Number: 100

Compound: CO[C@H]1OC2COC(c3ccccc3)O[C@H]2C(O)C1NS(=O)(=O)c1ccc(C)cc1 (stereo partly drawn) [Compound 8]
Measurement Units: µL
Result Number: 200

For the next question, use this compound.
For O=C1C=CC2(C=C1CO)OCCO2 [Compound 14] the compound record lists Addition amount of solvent until compound completely dissolved (Example 3) as 100

###

Procedure Summary: Extracting activity: partition of compound between water phase and organic phase (TLC)
Format: physicochemical
Settings: 2 mg compound in 100 μl chloroform + 100 μl distilled water
// Ratio of content of compound in water phase against organic phase (Comp. Ex. 3) lookup, one value per entry

Molecule: Cc1ccc(S(=O)(=O)OCCC2(CCS(=O)(=O)c3ccccc3)OCCO2)cc1 [Compound 6]
Result: 1/5
--
Molecule: Cc1ccc(S(=O)(=O)O[C@@H]2C(C)O[C@@H](OCc3ccccc3)C3OC(=O)OC32)cc1 (some centres unmarked) [Compound 9]
Result: 0/100
--
Molecule: O=C1C(OCc2ccccc2)=C[C@@H](CO)[C@@H]1CO [Compound 3]
Result: 4/5

Short answer for COCOc1cc(OC)c(OC)c2c1C(=O)OC2 [Compound 10] : Ratio of content of compound in water phase against organic phase (Comp. Ex. 3) was 1/100

###

Procedure Summary: Extracting activity: partition of compound between water phase and organic phase (TLC)
Type: physicochemical
Settings: 2 mg compound in 100 μl chloroform + 100 μl distilled water
Parameter Measured: Ratio of content of compound in water phase against organic phase (Comp. Ex. 3)

// Ratio of content of compound in water phase against organic phase (Comp. Ex. 3) lookup, molecule = CO[C@H]1OC(COCc2ccccc2)[C@H](N=[N+]=[N-])CC1NS(=O)(=O)c1ccc(C)cc1 (some centres unmarked) , result: 1/50

Per the record, `O=C(O)CNC(=O)OCc1ccccc1` has Ratio of content of compound in water phase against organic phase (Comp. Ex. 3) of 1/5

So, CO[C@H]1OC2COC(c3ccccc3)O[C@H]2C(O)C1NS(=O)(=O)c1ccc(C)cc1 (some centres unmarked) ? Its Ratio of content of compound in water phase against organic phase (Comp. Ex. 3) was 1/15

Ratio of content of compound in water phase against organic phase (Comp. Ex. 3) for `CC(=O)Oc1ccc(OC(C)=O)c(OC(C)=O)c1` is 0/100

Lab note: measured Ratio of content of compound in water phase against organic phase (Comp. Ex. 3) of `O=C1Cc2ccccc2N1` was 1/10

###

Procedure Summary: Extracting activity: partition of compound between water phase and organic phase (TLC)
Assay type: physicochemical
Settings: 2 mg compound in 100 μl 1,2,5-thiadiazole + 100 μl distilled water
Experimental: The extracting activity of 1,2,5-thiadiazole of the present invention was studied. A 2 mg of each of compounds 1 to 20 was dissolved in 100 μl of 1,2,5-thiadiazole, to which 100 μl of distilled water was added, and the system was subjected to separation operation. The ratio of the content of the compound in water phase against the counterpart in organic phase was determined using TLC, and the results are shown in Table 3. […]
# Ratio of content of compound in water phase against organic phase (Example 4) listing for each entry below

Below, each entry is followed by its recorded Ratio of content of compound in water phase against organic phase (Example 4) result.
Compound: Cc1ccc(S(=O)(=O)O[C@@H]2C(C)O[C@@H](OCc3ccccc3)C3OC(=O)OC32)cc1 (stereo partly shown) [Compound 9]
Result: 0/100
--
Compound: CC(=O)Oc1ccc(OC(C)=O)c(OC(C)=O)c1 [Compound 7]
Result: 0/100
--
Compound: COCOc1cc(OC)c(OC)c2c1C(=O)OC2 [Compound 10]
Result: 0/100

Entry under test: COCOc1cc(OCOC)c2c(c1)C(S(=O)(=O)c1ccccc1)OC2=O (stereo not shown) [Compound 4] . Its Ratio of content of compound in water phase against organic phase (Example 4) was 0/100

Value of measured Ratio of content of compound in water phase against organic phase (Example 4) for the entry O=C(O)CNC(=O)OCc1ccccc1 [Compound 5] : 0/100

Data point: CO[C@H]1OC(COCc2ccccc2)[C@H](N=[N+]=[N-])CC1NS(=O)(=O)c1ccc(C)cc1 (stereo partly shown) [Compound 2] ; Ratio of content of compound in water phase against organic phase (Example 4) = 0/100

The compound listed as O=C1Cc2ccccc2N1 [Compound 1] shows Ratio of content of compound in water phase against organic phase (Example 4) equal to 1/100

###

Procedure Summary: Dissolving capability: amount of solvent needed to completely dissolve 20 mg of compound
Assay type: physicochemical
Settings: 20 mg compound, solvent diethylether, room temperature
Parameter Measured: Amount of solvent required for completely dissolving the compound (Comp. Ex. 2) (µL)
A number alone suffices; assume µL.

Field: example entries. Status: answers known.
Compound: O=C1C=CC2(C=C1CO)OCCO2
Result Number: 2000
//
Compound: O=C(O)CNC(=O)OCc1ccccc1
Result Number: 2000
//
Compound: Cc1oc2ccccc2c(=O)c1C
Result Number: 4000
//
Compound: O=C1Cc2ccccc2N1
Result Number: 2000
//
Compound: Cc1ccc(S(=O)(=O)O[C@@H]2C(C)O[C@@H](OCc3ccccc3)C3OC(=O)OC32)cc1 (stereo partly shown)
Result Number: 6000
//
Compound: CO[C@H]1OC2COC(c3ccccc3)O[C@H]2C(O)C1NS(=O)(=O)c1ccc(C)cc1 (stereo partly shown)
Result Number: 1600
//
Compound: COCCCCC(O)C(O)C(=O)OC (stereo not shown)
Result Number: 200

Attention now turns to another entry.
# compound `CC(=O)Oc1ccc(OC(C)=O)c(OC(C)=O)c1` ; its Amount of solvent required for completely dissolving the compound (Comp. Ex. 2) = 2000

###

Procedure Summary: Extracting activity: partition of compound between water phase and organic phase (TLC)
Type: physicochemical
Settings: 2 mg compound in 100 μl diethylether + 100 μl distilled water
Protocol: The extracting activity of 1,2,5-thiadiazole of the present invention was studied. A 2 mg of each of compounds 1 to 20 was dissolved in 100 μl of 1,2,5-thiadiazole, to which 100 μl of distilled water was added, and the system was subjected to separation operation. The ratio of the content of the compound in water phase against the counterpart in organic phase was determined using TLC, and the results are shown in Table 3. […]
Parameter Measured: Ratio of content of compound in water phase against organic phase (Comp. Ex. 4)

Examples from the recorded data:
Molecule: Cc1ccc(S(=O)(=O)OCCC2(CCS(=O)(=O)c3ccccc3)OCCO2)cc1
Result: Hardly soluble

Molecule: O=C1C(OCc2ccccc2)=C[C@@H](CO)[C@@H]1CO
Result: Hardly soluble

Molecule: COCOc1cc(OCOC)c2c(c1)C(S(=O)(=O)c1ccccc1)OC2=O (centres unmarked)
Result: Hardly soluble

Molecule: O=C(O)CNC(=O)OCc1ccccc1
Result: 0/100

Now for the molecule whose Ratio of content of compound in water phase against organic phase (Comp. Ex. 4) we want.
// sample `O=C1Cc2ccccc2N1` , its Ratio of content of compound in water phase against organic phase (Comp. Ex. 4) was 1/5
